Every entry's value here was drawn from patent US10457654B2.

- test.target: hNav1.7 (Homo sapiens (Human), UniProt Q15858)
- Sequence (Q15858 other isoform, or with tags, fused parts or gaps): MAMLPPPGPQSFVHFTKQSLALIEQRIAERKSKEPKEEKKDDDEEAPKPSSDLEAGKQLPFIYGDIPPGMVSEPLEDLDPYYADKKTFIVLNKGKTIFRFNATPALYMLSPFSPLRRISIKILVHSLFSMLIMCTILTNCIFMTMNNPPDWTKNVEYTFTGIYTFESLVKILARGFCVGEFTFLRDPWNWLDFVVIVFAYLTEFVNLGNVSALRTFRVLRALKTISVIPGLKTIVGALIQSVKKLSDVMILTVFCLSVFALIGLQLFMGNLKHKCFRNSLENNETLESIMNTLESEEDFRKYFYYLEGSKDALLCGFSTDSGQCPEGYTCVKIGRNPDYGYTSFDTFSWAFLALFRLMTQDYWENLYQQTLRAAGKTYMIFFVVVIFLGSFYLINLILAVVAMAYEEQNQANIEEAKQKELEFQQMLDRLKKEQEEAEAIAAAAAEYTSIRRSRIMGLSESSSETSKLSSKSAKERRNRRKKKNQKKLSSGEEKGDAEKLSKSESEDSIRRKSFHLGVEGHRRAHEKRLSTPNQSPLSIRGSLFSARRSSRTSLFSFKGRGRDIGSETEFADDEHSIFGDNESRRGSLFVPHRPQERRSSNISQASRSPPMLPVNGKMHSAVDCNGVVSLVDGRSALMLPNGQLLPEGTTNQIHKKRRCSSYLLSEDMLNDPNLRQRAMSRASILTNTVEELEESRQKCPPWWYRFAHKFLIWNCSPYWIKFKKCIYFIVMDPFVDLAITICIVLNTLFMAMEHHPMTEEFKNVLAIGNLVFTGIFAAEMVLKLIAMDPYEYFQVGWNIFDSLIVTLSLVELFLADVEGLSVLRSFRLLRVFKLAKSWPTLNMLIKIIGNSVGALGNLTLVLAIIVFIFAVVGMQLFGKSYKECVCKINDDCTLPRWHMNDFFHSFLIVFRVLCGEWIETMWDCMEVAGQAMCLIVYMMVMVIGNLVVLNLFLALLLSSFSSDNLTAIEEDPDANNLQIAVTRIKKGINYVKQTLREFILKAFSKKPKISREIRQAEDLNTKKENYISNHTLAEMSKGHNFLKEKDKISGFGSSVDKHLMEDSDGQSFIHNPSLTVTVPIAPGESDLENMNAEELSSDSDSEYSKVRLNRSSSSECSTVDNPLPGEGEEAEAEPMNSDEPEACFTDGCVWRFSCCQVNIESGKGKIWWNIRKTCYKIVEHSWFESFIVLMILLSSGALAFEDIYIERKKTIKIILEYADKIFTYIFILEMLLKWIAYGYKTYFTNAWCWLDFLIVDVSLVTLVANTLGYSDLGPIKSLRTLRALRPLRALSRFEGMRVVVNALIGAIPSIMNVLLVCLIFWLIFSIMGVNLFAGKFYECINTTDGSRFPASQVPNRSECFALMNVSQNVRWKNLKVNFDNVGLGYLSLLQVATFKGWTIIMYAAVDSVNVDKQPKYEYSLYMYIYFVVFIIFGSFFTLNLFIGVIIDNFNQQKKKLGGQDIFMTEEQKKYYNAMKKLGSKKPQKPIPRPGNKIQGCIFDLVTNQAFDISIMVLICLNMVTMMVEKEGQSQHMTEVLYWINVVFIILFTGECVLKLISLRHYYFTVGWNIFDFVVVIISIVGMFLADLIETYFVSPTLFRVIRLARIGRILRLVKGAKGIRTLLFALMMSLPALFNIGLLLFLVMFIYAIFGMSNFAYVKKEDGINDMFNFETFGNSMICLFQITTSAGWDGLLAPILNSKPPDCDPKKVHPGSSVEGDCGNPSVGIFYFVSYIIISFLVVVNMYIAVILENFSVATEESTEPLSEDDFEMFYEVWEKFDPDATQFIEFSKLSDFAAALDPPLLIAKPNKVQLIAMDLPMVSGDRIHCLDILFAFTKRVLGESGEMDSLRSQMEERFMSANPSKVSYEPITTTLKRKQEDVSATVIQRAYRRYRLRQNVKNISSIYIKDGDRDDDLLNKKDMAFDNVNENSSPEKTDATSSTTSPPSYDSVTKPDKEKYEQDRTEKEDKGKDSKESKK
- assay.details: Patch voltage clamp electrophysiology assay (EP), Syncropatch 384PE, CHO cells expressing Nav1.7
- Assay type: cell-based
- condition.description: holding potential -50 mV; […] compound incubation; read-out: EP_SP hNav1.7 (Ex. 243B) IC50
Structures can show the parent of a compound that is named as a salt.
experimental.readout: pIC50
// returns pIC50 (minus log10 of molar concentration), number only

Previously resolved entries follow.
| compound | experimental.readout | quantitative.readout |
| --- | --- | --- |
| CN(C)[C@H]1C[C@@H]2C[C@@H]2C[C@@H]1Nc1cc(F)c(S(=O)(=O)Nc2nccs2)cc1Cl | pIC50 | 8.32 |
| O=S(=O)(Nc1nccs1)c1cc(Cl)c(N[C@H]2CCCC[C@@H]2N2CCC(F)CC2)cc1F | pIC50 | 7.93 |
| CN1CCC[C@H]1C(=O)N(C)[C@H]1CCCC[C@@H]1Nc1cc(F)c(S(=O)(=O)Nc2nccs2)cc1Cl | pIC50 | 7.53 |
| CN(C1CNC1)[C@H]1CCCC[C@@H]1Nc1cc(F)c(S(=O)(=O)Nc2nccs2)cc1Cl [Example 39, dihydrochloride] | pIC50 | 8.85 |

Query block: Requested field: pIC50. Item: CN(C1CNC1)[C@H]1C[C@@H](C(F)(F)F)CC[C@@H]1Nc1cc(F)c(S(=O)(=O)Nc2cccc(F)n2)cc1Cl
Result block: 8.43
